Assay: NCI Yeast Anticancer Drug Screen. Data for the rad50 strain (AID 155);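 also: 0% = growth of vehicle-only cultures of the same strain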
Conditions: S. cerevisiae rad50 strain growth inhibition; at 50.0 µM; hits give high values
Compounds without any hit were thinned out: in the full panel of roughly 79,000, 15% have a hit. Active and inactive are the calls of the source. Rule as the data show it: active = growth inhibition above about 70%; inactive = the rest.
# growth inhibition per entry

A selection of reference data follows.
• N#CC(c1ccccc1)c1ccccn1 (stereo not drawn) = 5.9% (inactive)
• Cc1nc2ccccc2c(=O)n1NC(=O)c1ccc([N+](=O)[O-])cc1 = -43.4% (inactive)
• CC(=O)Nc1cccc(N=NN(C)C)c1 = 14.2% (inactive)
• O=C(NC(Nc1ccc(F)c(Cl)c1)(C(F)(F)F)C(F)(F)F)OCc1ccccc1 = -1.35% (inactive)

Quick one: give measured growth inhibition for `O=C(Nc1ccc2c(c1)OCO2)O/N=C\c1ccccn1`
9.15% (inactive)

Tell us which growth inhibition value is on record for `COc1ccc(C(C)=O)cc1CCCOC(C)=O`
-0.7% (inactive)

Given the molecule `CCOC(=O)COc1ccc(C)c2c1C(=O)CC2` , write its reported growth inhibition.
-11.2% (inactive)

Name the recorded growth inhibition of the item `Nc1nc(-c2ccccc2)c(N=Nc2cccc(Cl)c2)s1` in your answer.
-10.7% (inactive)

Look up and report measured growth inhibition for this entry: `NNC(=O)N/N=C/c1cccc(O)c1`
-11.7% (inactive)

----------
Reported growth inhibition by item:
Test: NCI Yeast Anticancer Drug Screen. Data for the rad50 strain (AID 155);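 also: 0% = growth of vehicle-only cultures of the same strain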
Settings: S. cerevisiae rad50 strain growth inhibition; at 50.0 µM; hits give high values
Compounds without any hit were thinned out: in the full panel of roughly 79,000, 15% have a hit.
Number only, in %; omit the unit.

Example entries begin here.
- COc1cc(/C=C2\C=Cc3ccccc32)ccc1N(C)C: 5.45
- Fc1ccc(C2(c3ccc(F)cc3)CCCO2)cc1: 4.4
- O=C(NCO)NCOCn1c(=O)n(CO)c(=O)n(CO)c1=O: 5.05
- CCCCCCCCCCCCCCCCCCC1=CC(=O)c2ccccc2C1=O: 16.1
- c1ccc2cc(B(c3cccc4ccccc34)c3cccc4ccccc34)ccc2c1: 14
- CCCCCCCCCCCCCCCCCCNC1=C(C)C(=O)C(NCCCCCCCCCCCCCCCCCC)=C(OCC)C1=O: 2.7
- CC(=O)NNc1nc(C)c(C(=O)NNC(=O)C(=O)Nc2c(C)cccc2C(C)(C)C)s1: 26.6
- Cc1ccc(C)n1-c1ccc(OCC(N)=O)cc1: 16.3
- Cc1cc(=O)oc2c1c(C)nn2-c1cccc(Cl)c1: -14.5
- COc1ccc2cc1Oc1ccc(cc1)C[C@@H]1c3cc(c(OC)cc3CCN1C)Oc1c(OC)c(OC)cc3c1[C@@H](C2)N(C)CC3: 33

Quick one: give measured growth inhibition for `COc1ccc2nc(NC(=O)Nc3ccc(Cc4ccc(NC(=O)Nc5nc6ccc(OC)cc6s5)cc4)cc3)sc2c1`
-14.4

Supply recorded growth inhibition for `CCOc1ccc(NC(=O)c2cccc(C(=O)Nc3ccc(OCC)cc3)c2)cc1` here.
-13.8

Answer with reported growth inhibition of `CCOC(=O)C(=[N+]=[N-])C(=O)c1ccc(OS(C)(=O)=O)c(OS(C)(=O)=O)c1`
7.8

Fill in growth inhibition for record `c1cnc2c3ccncc3c3nc(-c4ccncc4)[nH]c3c2c1`
-10.2

Give the value of growth inhibition reported for the following: `NC(=O)NC(=O)NCc1ccccc1`
-1.35

Answer with the recorded growth inhibition for the molecule listed here: `CCOC(=O)c1c(/N=C/c2ccc3c(c2)OCO3)sc2c1CCCC2`
7.7

Give recorded growth inhibition. `CCC(=O)NCCc1ccccc1`
-16.2

Item CC1CCCN(C(=O)/C=C/c2ccccc2)C1 (stereo unspecified) : provide growth inhibition
9.25

Indicate the recorded growth inhibition value for this molecule: `COc1cccc(C=Nc2ccc(N(C)C)cc2)c1O.COc1cccc(C=Nc2ccc(N(C)C)cc2)c1O.[Co]`
31.4

Return growth inhibition for the following molecule: CCC(C)C1(C)OC1C(=O)OC (stereo unspecified)
-2.7

Please give the documented growth inhibition of `NS(=O)(=O)c1cccc(C(F)(F)F)c1`
-7.95

Indicate the recorded growth inhibition value for this molecule: CCCCCC1CCC(O)CC1 (stereo unspecified)
16.1

Identify measured growth inhibition associated with CCC(C#N)C1=CCCCCC1 (stereo unspecified)
31.8

Given `NS(=O)(=O)c1ccc(NC(=O)Nc2ccc(Cl)cc2[N+](=O)[O-])cc1` , respond with its growth inhibition.
-9.5

Read the entry COc1ccccc1P(=O)(CCP(=O)(c1ccccc1)c1ccccc1OC)c1ccccc1 (stereo unspecified) and write its reported growth inhibition.
2.15

Report growth inhibition, nothing else, for this molecule: `CN(C)c1nc(=NCc2cccs2)ss1`
71.2
